STUDY TARGET: human VR1 (Homo sapiens, UniProt Q8NER1)
Construct: A complete length cDNA coding for human VR1 was obtained; expressed in transfected cells
Sequence (Q8NER1 whole entry): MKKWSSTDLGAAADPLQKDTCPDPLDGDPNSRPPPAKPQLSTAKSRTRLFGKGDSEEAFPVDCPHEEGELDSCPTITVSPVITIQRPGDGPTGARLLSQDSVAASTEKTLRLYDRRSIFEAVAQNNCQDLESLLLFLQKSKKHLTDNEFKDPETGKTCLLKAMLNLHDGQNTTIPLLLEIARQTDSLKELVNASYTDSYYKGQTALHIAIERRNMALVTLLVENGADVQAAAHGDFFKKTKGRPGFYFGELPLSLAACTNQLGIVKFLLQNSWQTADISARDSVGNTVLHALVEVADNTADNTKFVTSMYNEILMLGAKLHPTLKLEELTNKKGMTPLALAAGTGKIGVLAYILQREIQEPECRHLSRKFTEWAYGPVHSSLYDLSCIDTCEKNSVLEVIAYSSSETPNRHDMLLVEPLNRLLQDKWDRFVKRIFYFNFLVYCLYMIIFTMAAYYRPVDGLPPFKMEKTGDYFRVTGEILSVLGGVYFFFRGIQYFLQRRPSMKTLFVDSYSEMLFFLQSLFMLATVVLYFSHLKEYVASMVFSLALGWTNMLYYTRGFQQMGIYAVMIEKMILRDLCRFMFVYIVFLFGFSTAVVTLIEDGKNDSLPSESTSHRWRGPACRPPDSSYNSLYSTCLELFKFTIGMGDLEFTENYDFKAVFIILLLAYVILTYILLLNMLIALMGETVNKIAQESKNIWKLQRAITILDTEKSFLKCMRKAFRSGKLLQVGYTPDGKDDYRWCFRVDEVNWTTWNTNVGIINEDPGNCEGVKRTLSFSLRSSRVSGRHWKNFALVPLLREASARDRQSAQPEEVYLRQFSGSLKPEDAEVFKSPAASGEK
PROTOCOL SUMMARY: Receptor binding assay ([3H]RTX) using membrane of human VR1 stably expressing HEK 293 cell
TEST CONTEXT: [3H]RTX binding, VR1/HEK 293 membrane sample, 37° C. 60 minutes; read-out: VR1 receptor binding inhibitory activity, IC50 value
Structures can show the parent of a compound that is named as a salt.
READOUT LABEL: pIC50
Interpret pIC50 as the negative base-10 log of the concentration measured in mol/L.

Cc1nc2cc(NC(=O)c3ccc(C(F)(F)F)cc3N[C@H]3CCCC[C@@H]3N(C)C)ccc2s1 [Example 108, hydrochloride]
7.72

Q: Would you kindly share the measured pIC50 for CCCCN1CCC(Nc2cc(C(F)(F)F)ccc2C(=O)Nc2ccc3c(c2)NC(=O)C3(C)C)CC1 ?
Result: 7.06

Q: For the molecule COCCNc1cc(C(F)(F)F)ccc1C(=O)Nc1ccc2sc(C)nc2c1 , what pIC50 is on record?
Result: 8.01

Q: Which pIC50 is listed for Cc1nc2cc(NC(=O)c3ccc(C(F)(F)F)cc3NCc3ccncc3)ccc2s1 ?
Result: 7.60

Q: Bench note: what pIC50 did CN1C(=O)CCc2ccc(NC(=O)c3ccc(Cl)cc3NC3CCCC3)cc21.Cl [Example 1, hydrochloride] show?
Result: 7.92

Q: Which pIC50 value is on record for CC(C)CN1CCC(Nc2cc(C(F)(F)F)ccc2C(=O)Nc2ccc3c(c2)NC(=O)C3(C)C)CC1 ?
Result: 8.43

Q: I would be grateful if you could share the reported pIC50 for Cl.O=C1Cc2c(cc(NC(=O)c3ccc(C(F)(F)F)cc3N[C@H]3CCCC[C@@H]3N3CCCC3)cc2C(F)(F)F)N1 [Example 107, hydrochloride] .
Result: 7.89

---

STUDY TARGET: human VR1 (Homo sapiens, UniProt Q8NER1)
Construct: A complete length cDNA coding for human VR1 was obtained; expressed in transfected cells
PROTOCOL SUMMARY: Receptor binding assay ([3H]RTX) using membrane of human VR1 stably expressing HEK 293 cell
TEST CONTEXT: [3H]RTX binding, VR1/HEK 293 membrane sample, 37° C. 60 minutes; read-out: VR1 receptor binding inhibitory activity, IC50 value
Where a name gives a salt, the structure may show the parent alone.
READOUT LABEL: log10 of IC50 (log10 of the value in µM)
Give log10 of IC50, with IC50 taken in µM.

Record excerpt, results attached:
O=C(Nc1ccc2cccnc2c1)c1ccc(C(F)(F)F)cc1N[C@H]1CCCC[C@H]1N1CCCC1 [Example 367]
-1.82
O=C(Nc1ccc2c(c1)N(CCO)C(=O)CC2)c1ccc(C(F)(F)F)cc1NC1CCCCC1 [Example 105]
-2.38
CCCCCN1CC[C@H](Nc2cc(C(F)(F)F)ccc2C(=O)Nc2ccc3c(c2)NC(=O)C3(C)C)C1 [Example 334]
-1.64
CN1C(=O)CCc2ccc(NC(=O)c3ccc(C(F)(F)F)cc3NC3(CN4CCCC4)CCCCC3)cc21 [Example 173]
-2.25
O=C(Nc1ccc2cccnc2c1)c1ccc(C(F)(F)F)cc1N[C@H]1CCCC[C@@H]1N1CCCC1 [Example 386]
-1.74

Q: Suppose we examine the compound CCC(CC)Nc1cc(Cl)ccc1C(=O)Nc1ccc2c(c1)N(C)C(=O)CC2 [Example 17] ; what log10 of IC50 value has been reported?
Result: -2.24

Q: Entry under review: C[C@H]1Oc2ccc(NC(=O)c3ccc(Cl)cc3N[C@@H]3CCCC[C@@H]3N3CCCC3)cc2NC1=O [Example 106, hydrochloride] . Reported log10 of IC50?
Result: -1.28

Q: Which value of log10 of IC50 has been reported for CC1(C)C(=O)Nc2cc(NC(=O)c3ccc(C(F)(F)F)cc3N[C@H]3CCCC[C@@H]3N3CCCC3)ccc21 [Example 248] in the records?
Result: -1.51

Q: Field request: log10 of IC50 | item: CN1C(=O)CCc2ccc(NC(=O)c3ccc(C(F)(F)F)cc3Nc3cccnc3)cc21 [Example 178]
Result: -1.21

Q: What value of measured log10 of IC50 is listed for CN1C(=O)CCc2ccc(NC(=O)c3ccc(C(F)(F)F)cc3N[C@H]3CCCC[C@@H]3N3CCC(C)(C)C3)cc21 [Example 170] ?
Result: -2.59

Q: What does the data say about its log10 of IC50? Entry: CN1C(=O)CCc2ccc(NC(=O)c3cc(Cl)cnc3NCC3CC3)cc21 [Example 400]
Result: -1.22

Q: I would be grateful if you could share the reported log10 of IC50 for CN1C(=O)CCc2ccc(NC(=O)c3ccc(Cl)cc3NN3CCCCC3)cc21 [Example 119] .
Result: -1.35

Q: // query log10 of IC50 value for entry CN1C(=O)CCc2ccc(NC(=O)c3ccc(C(F)(F)F)cc3N[C@@H]3CCCC[C@H]3OCc3ccccc3)cc21 [Example 176]
Result: -2.05
